Assay: Solubility in fasted-state simulated colonic fluid (FaSSCoF) at pH 6.5
Format: physicochemical
Conditions: 25 °C, pH 6.5, fassgf or other biorelevant, thermodynamic from solid, pH 6.5 FaSSCoF Solubility (mg/mL) Run 1
Counter-ions that a name gives are not always drawn.
MEASURE: solubility thermodynamic at 24 h (µg/mL)

>  <COMPOUND>
COc1cc(Nc2cc(Oc3ccc(NC(=O)Nc4cc(C(C)(C)C)cc(NS(C)(=O)=O)c4OC)c4ccccc34)ccn2)cc(OC)c1C(=O)NC1CCN(C)CC1

>  <REPORTED_RELATION>
=

>  <QUANTITATIVE_RESULT>
21

$$$$
>  <COMPOUND>
COc1cc(Nc2cc(Oc3ccc(NC(=O)Nc4cc(C(C)(C)C)cc(NS(C)(=O)=O)c4OC)c4ccccc34)ccn2)ccc1C(=O)NC(C)CN1CCN(C)CC1 (stereo not shown)

>  <REPORTED_RELATION>
=

>  <QUANTITATIVE_RESULT>
16

$$$$
>  <COMPOUND>
COc1cc(Nc2cc(Oc3ccc(NC(=O)Nc4cc(C(C)(C)C)cc(NS(C)(=O)=O)c4OC)c4ccccc34)ccn2)ccc1C(=O)NCCOCCOCCC(=O)O

>  <REPORTED_RELATION>
=

>  <QUANTITATIVE_RESULT>
15

$$$$
>  <COMPOUND>
COc1cc(Nc2cc(Oc3ccc(NC(=O)Nc4cc(C(C)(C)C)cc(NS(C)(=O)=O)c4OC)c4ccccc34)ccn2)ccc1S(=O)(=O)CC(CO)(CO)CO

>  <REPORTED_RELATION>
=

>  <QUANTITATIVE_RESULT>
5

$$$$
>  <COMPOUND>
COc1cc(Nc2cc(Oc3ccc(NC(=O)Nc4cc(C(C)(C)C)cc(NS(C)(=O)=O)c4OC)c4ccccc34)ccn2)cc(OC)c1C(=O)NCCOCCOCCO

>  <REPORTED_RELATION>
=

>  <QUANTITATIVE_RESULT>
6

$$$$
>  <COMPOUND>
COc1cc(Nc2cc(Oc3ccc(NC(=O)Nc4cc(C(C)(C)C)cc(NS(C)(=O)=O)c4OC)c4ccccc34)ccn2)ccc1C(=O)NCCOCCOCCO

>  <REPORTED_RELATION>
=

>  <QUANTITATIVE_RESULT>
4

$$$$
>  <COMPOUND>
COc1cc(Nc2cc(Oc3ccc(NC(=O)Nc4cc(C(C)(C)C)cc(NS(C)(=O)=O)c4OC)c4ccccc34)ccn2)ccc1C(=O)NCCCN1CCOCC1

>  <REPORTED_RELATION>
=

>  <QUANTITATIVE_RESULT>
15

$$$$
>  <COMPOUND>
COc1cc(Nc2cc(Oc3ccc(NC(=O)Nc4cc(C(C)(C)C)cc(NS(C)(=O)=O)c4OC)c4ccccc34)ccn2)ccc1S(=O)(=O)N(C)CCN1CCN(C)CC1

>  <REPORTED_RELATION>
<

>  <QUANTITATIVE_RESULT>
1

$$$$
>  <COMPOUND>
COc1cc(Nc2cc(Oc3ccc(NC(=O)Nc4cc(C(C)(C)C)cc(NC(=O)CO)c4OC)c4ccccc34)ccn2)ccc1C(=O)NCCN1CC[S+]([O-])CC1

>  <REPORTED_RELATION>
=

>  <QUANTITATIVE_RESULT>
7

$$$$
>  <COMPOUND>
COc1cc(Nc2cc(Oc3ccc(NC(=O)Nc4cc(C(C)(C)C)cc(NS(C)(=O)=O)c4OC)c4ccccc34)ccn2)ccc1C(=O)N(C)CCCN1CCOCC1

>  <REPORTED_RELATION>
=

>  <QUANTITATIVE_RESULT>
10

$$$$
>  <COMPOUND>
COc1cc(Nc2cc(Oc3ccc(NC(=O)Nc4cc(C(C)(C)C)cc(NS(C)(=O)=O)c4OC)c4ccccc34)ccn2)ccc1CP(C)(=O)O [70 (sodium salt)]

>  <REPORTED_RELATION>
>

>  <QUANTITATIVE_RESULT>
2800

$$$$
>  <COMPOUND>
COc1cc(Nc2cc(Oc3ccc(NC(=O)Nc4cc(C(C)(C)C)cc(NS(C)(=O)=O)c4OC)c4ccccc34)ccn2)ccc1C(=O)N(C)CCN1CCN(C)CC1

>  <REPORTED_RELATION>
=

>  <QUANTITATIVE_RESULT>
16

$$$$
>  <COMPOUND>
COc1cc(Nc2nccc(Oc3ccc(NC(=O)Nc4cc(C(C)(C)C)cc(NS(C)(=O)=O)c4OC)c4ccccc34)n2)ccc1C(=O)NCCN1CCN(C)CC1

>  <REPORTED_RELATION>
<

>  <QUANTITATIVE_RESULT>
1

$$$$
>  <COMPOUND>
COc1cc(Nc2cc(Oc3ccc(NC(=O)Nc4cc(C(C)(C)C)cc(NS(C)(=O)=O)c4OC)c4ccccc34)ccn2)ccc1C(=O)NCCCCCCC(=O)O [34 (hydrochloride salt)]

>  <REPORTED_RELATION>
=

>  <QUANTITATIVE_RESULT>
1

$$$$
>  <COMPOUND>
C#Cc1cc(Nc2cc(Oc3ccc(NC(=O)Nc4cc(C(C)(C)C)cc(NS(C)(=O)=O)c4OC)c4ccccc34)ccn2)ccc1C(=O)NCCN1CCOCC1

>  <REPORTED_RELATION>
=

>  <QUANTITATIVE_RESULT>
10

$$$$
>  <COMPOUND>
COc1cc(Nc2cc(Oc3ccc(NC(=O)Nc4cc(C(C)(C)C)cc(NS(C)(=O)=O)c4OC)c4ccccc34)ccn2)ccc1C(=O)NCC(=O)O [17(ar) (hydrochloride salt)]

>  <REPORTED_RELATION>
=

>  <QUANTITATIVE_RESULT>
204

$$$$
>  <COMPOUND>
COc1c(NC(=O)Nc2ccc(Oc3ccnc(Nc4ccc(C(=O)O)c(N(C)C)c4)c3)c3ccccc23)cc(C(C)(C)C)cc1NS(C)(=O)=O

>  <REPORTED_RELATION>
=

>  <QUANTITATIVE_RESULT>
10

$$$$
>  <COMPOUND>
COc1cc(Nc2nccc(Oc3ccc(NC(=O)Nc4cc(C(C)(C)C)cc(NS(C)(=O)=O)c4OC)c4ccccc34)n2)ccc1C(=O)NCCCN1CCOCC1

>  <REPORTED_RELATION>
=

>  <QUANTITATIVE_RESULT>
9

$$$$
>  <COMPOUND>
COc1cc(Nc2cc(Oc3ccc(NC(=O)Nc4cc(C(C)(C)C)cc(NS(C)(=O)=O)c4OC)c4ccccc34)ccn2)ccc1C(=O)NCCN1CCN(C2CC2)CC1

>  <REPORTED_RELATION>
=

>  <QUANTITATIVE_RESULT>
11

$$$$
>  <COMPOUND>
COc1cc(Nc2cc(Oc3ccc(NC(=O)Nc4cc(C(C)(C)C)cc(NS(C)(=O)=O)c4OC)c4ccccc34)ccn2)cc(OC)c1C(=O)NCC(CO)(CO)CO

>  <REPORTED_RELATION>
=

>  <QUANTITATIVE_RESULT>
25

$$$$
>  <COMPOUND>
COc1cc(Nc2cc(Oc3ccc(NC(=O)Nc4cc(C(C)(C)C)cc(NS(C)(=O)=O)c4OC)c4ccccc34)ccn2)ccc1S(=O)(=O)CCCN1CCOCC1

>  <REPORTED_RELATION>
=

>  <QUANTITATIVE_RESULT>
4

$$$$
>  <COMPOUND>
COc1cc(Nc2nccc(Oc3ccc(NC(=O)Nc4cc(C(C)(C)C)cc(NS(C)(=O)=O)c4OC)c4ccccc34)n2)cc(OC)c1C(=O)NCCN1CCN(C)CC1

>  <REPORTED_RELATION>
=

>  <QUANTITATIVE_RESULT>
1

$$$$

// data source = patent US9751837B2
